What abundance fitness was measured for each of the following?
B1: Segment polarity protein dishevelled homolog DVL-3, residues 2 to 81; numbered along this chain, Q92997 (parent)
chain: GETKIIYHLDGQETPYLVKLPLPAERVTLADFKGVLQRPSYKFFFKSMDDDFGVVKEEISDDNAKLPCFNGRVVSWLVSA

Variants of: B1
test_details: abundance fitness (aPCA) (normalised: wild type 0, dead -1); higher = more abundant; growth selection in yeast, the domain comes from the species named
details: Homo sapiens
In your answer, state the number alone without any accompanying words.

Need abundance fitness, item GETKIIYHLDGQETPYLVKLPLPAERVTLADFKGVLQRPSYKFFFKSMDDDFGVVKEEISDDNAKLPCFNGRVVSWPVSA [L77P] -0.929

# abundance fitness lookup, item GETKIIYHLDGQETPYLVKLPLPAERVTLADFKGVLQRPSYKFFFKSMDDDFGVVKEEDSDDNAKLPCFNGRVVSWLVSA [I59D] -1.21

Any idea what abundance fitness was measured for GETKIIYHLDGQETPYLVKLPLPAERVTLADFKGVLQRPSYKFFFKSMDDDFGVVKEEISDDNAKLPCFNGRVVSWLVDA [S79D] ? 0.079

Field request: abundance fitness | item: GETKIIYHLDGQETPYLVKLPLPAERVTLADFKGVLQRPSKKFFFKSMDDDFGVVKEEISDDNAKLPCFNGRVVSWLVSA [Y41K] -0.787

Origin of measurements: the Human Domainome abundance scans (Beltran et al. 2025)
